Each recorded value in this set is attributed to patent US9187471B2.

Target: rat adrenergic α1A receptor (Rattus norvegicus, UniProt P43140)
Construct: rat adrenergic α1A receptor obtained from Wistar Rat submaxillary glands; from tissue; host or cells: Wistar rat submaxillary glands
Sequence (P43140 whole entry): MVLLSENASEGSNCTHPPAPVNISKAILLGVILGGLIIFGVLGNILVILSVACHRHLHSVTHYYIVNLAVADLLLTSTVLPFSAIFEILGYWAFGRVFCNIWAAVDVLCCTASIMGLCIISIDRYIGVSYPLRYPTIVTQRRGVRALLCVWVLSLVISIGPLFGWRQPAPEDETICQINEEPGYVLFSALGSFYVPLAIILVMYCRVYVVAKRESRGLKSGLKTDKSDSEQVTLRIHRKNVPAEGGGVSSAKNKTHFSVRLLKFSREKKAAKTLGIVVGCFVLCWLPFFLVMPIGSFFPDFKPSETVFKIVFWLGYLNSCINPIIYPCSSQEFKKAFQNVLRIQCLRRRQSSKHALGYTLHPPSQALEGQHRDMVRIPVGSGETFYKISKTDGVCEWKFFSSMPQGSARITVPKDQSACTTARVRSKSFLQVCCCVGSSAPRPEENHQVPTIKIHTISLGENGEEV
Assay: Adrenergic α1A radioligand binding ([3H]Prazosin)
Conditions: read-out: Adrenergic (0.1 μM) a1A, percent inhibition of specific binding; compound at 0.1 μM; 0.25 nM [3H]Prazosin
Description: To evaluate in radioligand binding assays the activity of compounds of the invention, rat adrenergic α1A receptor obtained from Wistar Rat submaxillary glands (Michel, A. et al, Br. J. Pharmacol. 98:883, 1989) in a modified Tris-HCl buffer (50 mM Tris-HCl buffer, pH 7.4, 0.5 mM EDTA) was used. […] Non-specific binding was estimated in the presence of 10 μM phentolamine Receptor proteins were filtered and washed, the filters were then counted to determine [^3H]Prazosin specifically bound. […]
Measured parameter: inhibition at 0.1 µM
// return the numeric value with its unit appended

Recorded inhibition at 0.1 µM, per entry:
Compound: Cc1ccc2c(c1)c1c(n2-c2ccccc2-c2ccc(C)nc2)CCN(C)C1 [Compound 59]
inhibition at 0.1 µM: 42%

Compound: Cc1ccc2c(c1)c1c(n2-c2cscc2-c2ccc(S(C)(=O)=O)cc2)CCN(C)C1 [Compound No. 76]
inhibition at 0.1 µM: 82%

Compound: Cc1ccc2c(c1)c1c(n2-c2ccccc2-c2c(C)noc2C)CCN(C)C1 [Compound No. 82]
inhibition at 0.1 µM: 3%

Compound: Cc1ccc2c(c1)c1c(n2-c2cscc2-c2ccc(O)nc2)CCN(C)C1 [Compound 49]
inhibition at 0.1 µM: 15%

Compound: Cc1ccc2c(c1)c1c(n2-c2cscc2-c2cnc(N(C)C)nc2)CCN(C)C1 [Compound 40]
inhibition at 0.1 µM: 43%

Compound: Cc1ccc2c(c1)c1c(n2-c2ccc3cnccc3c2)CCN(C)C1 [Compound 38]
inhibition at 0.1 µM: 36%

Compound: Cc1ccc2c(c1)c1c(n2-c2cccc(-c3ccc(S(C)(=O)=O)cc3)c2)CCN(C)C1 [Compound No. 131]
inhibition at 0.1 µM: 0%

Compound: Cc1ccc2c(c1)c1c(n2-c2cscc2-c2ccc3c(ccn3C)c2)CCN(C)C1 [Compound 33]
inhibition at 0.1 µM: 57%

Compound: Cc1ccc2c(c1)c1c(n2-c2ccc(-c3ccnn3C)cn2)CCN(C)C1 [Compound No. 146]
inhibition at 0.1 µM: 33%

Compound: CNC(=O)c1ccc(-c2cscc2-n2c3c(c4cc(C)ccc42)CN(C)CC3)cn1 [Compound No. 73]
inhibition at 0.1 µM: 71%

Look up and state reported inhibition at 0.1 µM for Cc1ccc2c(c1)c1c(n2-c2ccccc2-c2cnn(C)c2)CCN(C)C1 [Compound No. 86]
17%

Using the record for Cc1ccc2c(c1)c1c(n2-c2cscc2-c2cnn(C)c2)CCN(C)C1 [Compound 30] , state its measured inhibition at 0.1 µM.
62%

Report inhibition at 0.1 µM for CC(=O)Nc1ccc(-c2cscc2-n2c3c(c4cc(C)ccc42)CN(C)CC3)cn1 [Compound 56]
49%

Item Cc1ccc2c(c1)c1c(n2-c2cscc2-c2ccc(C)s2)CCN(C)C1 [Compound No. 79] : provide inhibition at 0.1 µM
79%

---

Measured inhibition at 0.1 µM by item
biological target: human recombinant serotonin (5-Hydroxytryptamine) 5-HT7 receptor (Homo sapiens); construct: expressed in transfected cells; host or cells: CHO; assay: Serotonin 5-HT7 radioligand binding ([3H]LSD); settings: compound at 0.1 μM; read-out: Inhibition of ligand binding, Serotonin 5-HT7 (percent inhibition of specific binding)
Sequence (P34969 whole entry): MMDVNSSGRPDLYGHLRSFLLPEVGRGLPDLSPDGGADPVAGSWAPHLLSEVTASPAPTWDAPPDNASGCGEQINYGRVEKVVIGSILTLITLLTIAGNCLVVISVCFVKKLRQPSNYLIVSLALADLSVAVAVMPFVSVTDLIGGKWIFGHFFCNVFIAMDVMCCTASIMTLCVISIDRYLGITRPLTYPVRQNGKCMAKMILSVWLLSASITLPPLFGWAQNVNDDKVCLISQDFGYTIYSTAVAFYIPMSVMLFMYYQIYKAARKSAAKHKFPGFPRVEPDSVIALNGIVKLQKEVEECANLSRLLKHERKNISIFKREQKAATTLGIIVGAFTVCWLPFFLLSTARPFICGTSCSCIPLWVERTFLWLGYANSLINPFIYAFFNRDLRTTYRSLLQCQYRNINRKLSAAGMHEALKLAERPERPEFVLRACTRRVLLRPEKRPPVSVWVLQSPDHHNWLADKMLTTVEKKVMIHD
Respond with the bare value in %.

Molecule: CNC(=O)c1ccc(-c2ccccc2-n2c3c(c4cc(C)ccc42)CN(C)CC3)cn1 [Compound No. 71]
Measured parameter: inhibition at 0.1 µM
Output unit: %
Numeric readout: 27

Molecule: Cc1ccc2c(c1)c1c(n2-c2ccc(-c3ccc4c(ccn4C)c3)cn2)CCN(C)C1 [Compound No. 136]
Measured parameter: inhibition at 0.1 µM
Output unit: %
Numeric readout: 26

Molecule: Cc1ccc2c(c1)c1c(n2-c2cscc2-c2ccc(F)nc2)CCN(C)C1 [Compound 35]
Measured parameter: inhibition at 0.1 µM
Output unit: %
Numeric readout: 93

Molecule: Cc1ccc2c(c1)c1c(n2-c2cscc2-c2ccncc2)CCN(C)C1 [Compound 20]
Measured parameter: inhibition at 0.1 µM
Output unit: %
Numeric readout: 97

Molecule: Cc1ccc2c(c1)c1c(n2-c2cncn2C)CCN(C)C1 [Compound 18]
Measured parameter: inhibition at 0.1 µM
Output unit: %
Numeric readout: 22

Send back human recombinant serotonin (5-Hydroxytryptamine) 5-HT7 receptor (Homo sapiens) inhibition at 0.1 µM of Cc1ccc2c(c1)c1c(n2-c2ccccc2-c2cccnc2)CCN(C)C1 [Compound 13] only.
47

Name the recorded inhibition at 0.1 µM of CN1CCc2c(c3cc(Cl)ccc3n2-c2cscc2-c2ccc(F)cc2)C1 [Compound 25] , assay system human recombinant serotonin (5-Hydroxytryptamine) 5-HT7 receptor (Homo sapiens).
94

Quote inhibition at 0.1 µM with test system human recombinant serotonin (5-Hydroxytryptamine) 5-HT7 receptor (Homo sapiens) for Cc1ccc2c(c1)c1c(n2-c2cccc(-c3ccc(S(C)(=O)=O)cc3)c2)CCN(C)C1 [Compound No. 131]
2

Lab note: record inhibition at 0.1 µM of Cc1ccc2c(c1)c1c(n2-c2cccc(-c3cn[nH]c3)c2)CCN(C)C1 [Compound No. 70] tested on human recombinant serotonin (5-Hydroxytryptamine) 5-HT7 receptor (Homo sapiens).
50

Quote inhibition at 0.1 µM with test system human recombinant serotonin (5-Hydroxytryptamine) 5-HT7 receptor (Homo sapiens) for Cc1ccc2c(c1)c1c(n2-c2cccc(N(C)C)c2)CCN(C)C1 [Compound 7]
19

State recorded inhibition at 0.1 µM with human recombinant serotonin (5-Hydroxytryptamine) 5-HT7 receptor (Homo sapiens), entry Cc1ccc2c(c1)c1c(n2-c2cscc2-c2cnc(N(C)C)nc2)CCN(C)C1 [Compound 40] , no comment.
49

Jot down inhibition at 0.1 µM (human recombinant serotonin (5-Hydroxytryptamine) 5-HT7 receptor (Homo sapiens)) of Cc1ccc2c(c1)c1c(n2-c2cccc(-c3ccc(S(N)(=O)=O)cc3)c2)CCN(C)C1 [Compound No. 158] .
26

Find the measured inhibition at 0.1 µM of Cc1ccc2c(c1)c1c(n2-c2cccc(-c3cnc(N(C)C)nc3)c2)CCN(C)C1 [Compound 42] with human recombinant serotonin (5-Hydroxytryptamine) 5-HT7 receptor (Homo sapiens) as test system.
31
